# Test system: SK-MEL-5
# assay_name: NCI tumour cell line growth inhibition, 48 h
Calls of active or inactive are those of the source. Rule as the data show it: active = GI50 up to about 1.1 µM and inactive = higher.
In this exercise, the only acceptable responses are True (active), False (inactive)

Completed entries (count: 4):
>  <compound>
C=C1C[C@@H]2CC[C@@]34CC5O[C@H]6C(O[C@H]7CC[C@H](CC(=O)O[C@@H]8[C@@H](C)[C@@H]9O[C@@H]%10C[C@]%11(C[C@@H]%12O[C@]%13(C[C@H](C)[C@@H]%14O[C@@H]%15CC(C(COC(C)=O)OC(C)=O)O[C@@H]%15C[C@@H]%14O%13)C[C@H](C)[C@@H]%12O%11)O[C@@H]%10C[C@@H]9O[C@H]8CC8O[C@@H](CC[C@@H]1O2)C[C@@H](C)C8(O)CO)O[C@@H]7[C@@H]6O3)[C@H]5O4 (some centres not stated)

>  <assayed_system>
SK-MEL-5

>  <discrete_label>
True

$$$$
>  <compound>
CCOC(=O)/C1=C(\C)N(c2ccc(C)cc2)C(=O)c2ccccc2C(=O)c2c(O)ccc(O)c21

>  <assayed_system>
SK-MEL-5

>  <discrete_label>
False

$$$$
>  <compound>
O=[N+]([O-])c1ccc(/N=N/N2CCCC2)cc1

>  <assayed_system>
SK-MEL-5

>  <discrete_label>
False

$$$$
>  <compound>
CC(O)CN1c2ccccc2Sc2ccc(Cl)cc21 (configuration not stated)

>  <assayed_system>
SK-MEL-5

>  <discrete_label>
False

$$$$

Ask | Hello, I am checking results. What call was entered for S=P1(Oc2ccccc2)NNP2(=NP(N3CC3)(N3CC3)=NP(N3CC3)(N3CC3)=N2)NN1 (configuration not stated) ?
Reply | False

Ask | Hello, I am checking results. What call was entered for CC12C(=O)OC(=O)C1(C)C1C=CC2O1 (configuration not stated) ?
Reply | False

Ask | Hello, I am checking results. What call was entered for `CCOC(=O)c1cc(-c2ccc(OC)c(OC)c2)cn1C` ?
Reply | False

Ask | Hello, I am checking results. What call was entered for `Nc1ncn(C/C=C/c2ccccc2)c2ncnc1-2` ?
Reply | False

====

# Tested on: U-251
# assay_name: NCI tumour cell line growth inhibition, 48 h
Calls of active or inactive are those of the source. No stated cut-off is given here; in the data, active = GI50 up to about 1.1 µM and inactive = higher.
In this exercise, the only acceptable responses are label 1 for active, label 0 for inactive

Completed entries (count: 6):
>  <compound>
COc1ccc(-n2nnc(C(N)=O)c2O)cc1

>  <discrete_label>
label 0

$$$$
>  <compound>
O=c1oc2ccc([N+](=O)[O-])cc2cc1-c1csc(-c2ccccc2)n1

>  <discrete_label>
label 0

$$$$
>  <compound>
COC(=O)c1ccc(/C=N/c2cc(C)nn2-c2ccccc2)cc1

>  <discrete_label>
label 0

$$$$
>  <compound>
Cc1ccc(S(=O)(=O)NN=C2C(C)(C)CC2(C)C)cc1

>  <discrete_label>
label 0

$$$$
>  <compound>
CCOC(=O)[C@@H]1[C@@H](c2ccccc2)N(C)O[C@@]1(c1ccccc1)C(F)(F)F

>  <discrete_label>
label 0

$$$$
>  <compound>
O=C(/C=C/c1ccc(O)c(O)c1)OCCOC(=O)/C=C/c1ccc(O)c(O)c1

>  <discrete_label>
label 0

$$$$

Ask | Hello, I am checking results. What call was entered for `COc1ccc2nc3cc([N+](=O)[O-])ccc3c(Nc3ccc(S(=O)(=O)Nc4ncccn4)cc3)c2c1` ?
Reply | label 0

Ask | Hello, I am checking results. What call was entered for `C/C(=N\NC(=S)Nc1ccc(C(=O)O)cc1)c1ccccn1` ?
Reply | label 0

Ask | Hello, I am checking results. What call was entered for `CC(C)/C(Cl)=N\OC(NC(=O)P(=O)(c1ccccc1)c1ccccc1)(C(F)(F)F)C(F)(F)F` ?
Reply | label 0

Ask | Hello, I am checking results. What call was entered for `O=c1c2cc([N+](=O)[O-])ccc2nc2n1CCCCC2` ?
Reply | label 0

Ask | Hello, I am checking results. What call was entered for `O=C1CC2(CCNCC2)C(=O)N1N1CCOCC1` ?
Reply | label 0

Ask | Hello, I am checking results. What call was entered for Cc1ccc(C)c(NC2=NC(=O)C(CC(=O)Nc3ccc(Cl)cc3Cl)S2)c1 (stereo not given) ?
Reply | label 0

====

Measured GI50 accompanies every entry in the list below.
# System: HT-29
# assay_name: NCI tumour cell line growth inhibition, 48 h
Calls of active or inactive are those of the source. No stated cut-off is given here; in the data, active = GI50 up to about 1.1 µM and inactive = higher.

>  <compound>
CO/C(=N\N=C\c1ccc(Cl)cc1)c1ccncc1

>  <endpoint_value>
> 100 µM (inactive)

$$$$
>  <compound>
Cc1cc(N(CCC#N)CCC#N)ccc1/C=C1N=C(/C=C\c2ccccc2)N(c2ccc(C(=O)O)cc2)C\1=O

>  <endpoint_value>
> 100 µM (inactive)

$$$$
>  <compound>
COc1ccc(C2C(Cl)C(=O)N2NC(=O)c2ccc(NC(C)=O)cc2)cc1OC (stereo not drawn)

>  <endpoint_value>
> 100 µM (inactive)

$$$$
>  <compound>
CN(CCN(C)C(=S)NN)C(=S)NN

>  <endpoint_value>
> 100 µM (inactive)

$$$$
>  <compound>
N#Cc1nc(C#N)n(S(=O)(=O)c2ccccc2)c1NS(=O)(=O)c1ccccc1

>  <endpoint_value>
> 100 µM (inactive)

$$$$
>  <compound>
CCCCCCCCCCCCC(O)[C@H]1CC[C@H](C(O)CCCCCC(=O)CCCCC2CC(C(C)=O)C(=O)O2)O1 (stereo partly drawn)

>  <endpoint_value>
6.73 µM (inactive)

$$$$
>  <compound>
COc1c(OC/C=C(\C)CCC=C(C)C)ccc2ccc(=O)oc12 [COLLININ]

>  <endpoint_value>
94.4 µM (inactive)

$$$$
>  <compound>
C#CCOCn1cnc2ncnc(Cl)c21

>  <endpoint_value>
> 100 µM (inactive)

$$$$
>  <compound>
N=C(N)SCCN1CCCCC1

>  <endpoint_value>
29.9 µM (inactive)

$$$$
>  <compound>
Fc1ccccc1C1SCC2=Nc3ccccc3CN21 (stereo not drawn)

>  <endpoint_value>
> 100 µM (inactive)

$$$$

Ask | Entry `Cc1ccc(/C=C/C(=O)c2cc(CN(C)C)c(O)c(CN(C)C)c2)cc1` has what GI50?
Reply | 13.7 µM (inactive)

Ask | Entry `N#Cc1c2c(c(Nc3ccc(F)cc3)n3c1nc1ccccc13)CCCC2` has what GI50?
Reply | > 100 µM (inactive)

Ask | Entry CC(=O)CC12NC(=O)N(C)N=C1N(C)C(=O)N(C)C2=O (stereo not drawn) has what GI50?
Reply | 35.9 µM (inactive)

Ask | Entry `CN(C)CCNC(=O)c1ccc2ccc3cccnc3c2n1` has what GI50?
Reply | 9.14 µM (inactive)

Ask | Entry CC(Oc1ccccc1Cl)C(=O)NN1C(=O)CSC1c1ccccc1 (stereo not drawn) has what GI50?
Reply | > 100 µM (inactive)

Ask | Entry `COc1cc(OC)c2c(=O)c3c([N+](=O)[O-])cccc3n(C)c2c1` has what GI50?
Reply | > 100 µM (inactive)

Ask | Entry `CC[C@@H]1ON(C)[C@H]2CN(C)C(=O)[C@@H]12` has what GI50?
Reply | > 100 µM (inactive)

Ask | Entry C=CCOc1ccc(C2c3c(n[nH]c3O)CC(C)(O)C2C(=O)OC)cc1OC (stereo not drawn) has what GI50?
Reply | > 100 µM (inactive)

====

# System: U-251
# assay_name: NCI tumour cell line growth inhibition, 48 h
Active and inactive are the calls of the source. No stated cut-off is given here; in the data, active = GI50 up to about 1.1 µM and inactive = higher.
In this exercise, the only acceptable responses are y for active, n for inactive

Completed entries (count: 5):
>  <molecule>
C[N+](C)([O-])CCC=C1c2ccccc2CCc2ccccc21

>  <discrete_label>
n

$$$$
>  <molecule>
N#CCCN(CCC#N)c1ccc(C(=N/c2ccc(Cl)cc2)/N=N/c2ccccc2)cc1

>  <discrete_label>
n

$$$$
>  <molecule>
COc1ccc(NC(=O)c2cc(OC)c(OC)c(OC)c2)cc1

>  <discrete_label>
n

$$$$
>  <molecule>
ClC[Si]12OCCN(CCO1)CCO2

>  <discrete_label>
n

$$$$
>  <molecule>
NNC(=O)c1ccccc1Nc1nc(-c2cccs2)nc2ccc(Br)cc12

>  <discrete_label>
n

$$$$

Ask | Hello, I am checking results. What call was entered for CCOC(=O)Nc1cc2c(c(N)n1)N=C(c1ccccc1)[C@H](C)N2 [MIVOBULIN ISETHIONATE] ?
Reply | y

Ask | Hello, I am checking results. What call was entered for `CO/C(=N\N=C\c1ccc(Cl)cc1)c1ccncc1` ?
Reply | n

Ask | Hello, I am checking results. What call was entered for `CN(CCCN=C=S)CCCN1c2ccccc2CCc2ccccc21` ?
Reply | n

Ask | Hello, I am checking results. What call was entered for CC(C)(Cl)C(Br)CCC(C)(Br)C(Br)CBr (centres undefined) ?
Reply | n

Ask | Hello, I am checking results. What call was entered for `CC(C)(C)OC(=O)NCCC(=O)NC1(c2cc3ccccc3s2)CCCCC1` ?
Reply | n

Ask | Hello, I am checking results. What call was entered for `CN1C=C(C(N)=O)Cc2ccsc21` ?
Reply | n
